Test system: Human immunodeficiency virus 1
test.description: Antiviral activity against HIV-1 infected in human MT4 cells assessed as reduction in viral replication
Type: functional, organism-based
protocol.conditions: Human immunodeficiency virus 1, MT4
measured.metric: EC50

Problem: Give the measured EC50 of O=C1c2c(ccc(O)c2O)CN1Cc1ccc(O)cc1 .
Result: ~4 µM

====

system.name: Human immunodeficiency virus type 1 integrase (Human immunodeficiency virus 1, UniProt Q7ZJM1)
Sequence (Q7ZJM1 whole entry): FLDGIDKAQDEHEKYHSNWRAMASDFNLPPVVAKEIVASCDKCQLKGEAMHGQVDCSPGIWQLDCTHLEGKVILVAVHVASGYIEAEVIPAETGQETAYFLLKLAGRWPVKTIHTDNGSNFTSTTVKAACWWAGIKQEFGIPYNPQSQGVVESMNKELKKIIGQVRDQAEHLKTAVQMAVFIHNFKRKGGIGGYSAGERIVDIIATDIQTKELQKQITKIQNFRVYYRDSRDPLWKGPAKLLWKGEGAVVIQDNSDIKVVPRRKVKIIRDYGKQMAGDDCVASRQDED
test.description: Inhibition of recombinant HIV-1 integrase by strand transfer activity
measured.metric: IC50 (nM)
One number for each entry, in nM.

test_smiles=Cc1ccc(S(=O)(=O)n2cc(C(=O)/C=C3\OC(C)(C)OC3=O)c3cc(Br)ccc32)cc1 quantitative_result=5700

Now, please, on to the next molecule.
Problem: Give the measured IC50 of O=C(O)/C(O)=C/C(=O)c1cn(S(=O)(=O)C(=O)c2ccc(F)cc2)c2ccc(Br)cc12 .
Result: 200

====

Tested on: Human immunodeficiency virus 1
test.description: Antiviral activity against HIV-1 IIIB infected in human C8166 cells assessed as reduction in viral replication
Type: functional, organism-based
protocol.conditions: Human immunodeficiency virus 1, IIIB
measured.metric: EC50 (µM)
Give bare numbers, in µM.

test_smiles=CCc1ccc(S(=O)(=O)n2cc(C(=O)CCc3nnc(-c4ccccc4)o3)c3ccc(C)cc32)cc1 measured_metric=EC50 u=µM quantitative_result=4.62

Problem: Give the measured EC50 of CCc1ccc(S(=O)(=O)n2cc(C(=O)CN3CCOCC3)c3ccc(C)cc32)cc1 .
Result: 9.42
